System: HIV-2(ROD)
Assay: Inhibition of HIV-2 (ROD)-induced cytopathicity (giant cell formation) in CEM cells
Type: cell-based
Conditions: read-out: EC50 HIV-2 (concentration required to inhibit HIV-induced giant cell formation by 50%); HIV-2, CEM cell cultures
Could you please report measured EC50 for the items listed next?
Kindly provide the numeric value in µM only, without the unit symbol.

Give the measured EC50 of CCCCCCCCCC[N+](C)(C)CCCNC(=O)C1NC(=O)C2NC(=O)C(NC(=O)C3NC(=O)C4NC(=O)C(Cc5ccc(c(Cl)c5)Oc5cc3cc(c5O)Oc3ccc(cc3Cl)C2O)NC(=O)C(N)c2ccc(O)c(c2)Oc2cc(O)cc4c2)c2ccc(O)c(c2)-c2c(O)cc(O)cc21 (stereo not drawn) .
2.3

Moving on to the next compound: CCCCCCCCCCNC(=O)C(N)CCCCNCc1c(O)cc2c(c1O)-c1cc(ccc1O)C1NC(=O)C3NC(=O)C4NC(=O)C(Cc5ccc(c(Cl)c5)Oc5cc3cc(c5O)Oc3ccc(cc3Cl)C(O)C(NC1=O)C(=O)NC2C(=O)NCCCN(C)C)NC(=O)C(N)c1ccc(O)c(c1)Oc1cc(O)cc4c1 (stereo not drawn)
5.5

----------
Could you please report measured pEC50 for the items listed next?
Tested on: HIV-1 (IIIB)
Assay: Inhibition of HIV-1 (IIIB)-induced cytopathicity (giant cell formation) in CEM cells
Format: cell-based
Details: read-out: EC50 HIV-1 (concentration required to inhibit HIV-induced giant cell formation by 50%); HIV-1, CEM cell cultures
Friendly reminder that pEC50 comes from taking -log10 of the concentration in mol/L.

Provide value of pEC50 for this record tested with HIV-1 (IIIB): C[N+](C)(C)CCCNC(=O)C1NC(=O)C2NC(=O)C(NC(=O)C3NC(=O)C4NC(=O)C(Cc5ccc(c(Cl)c5)Oc5cc3cc(c5O)Oc3ccc(cc3Cl)C2O)NC(=O)C(N)c2ccc(O)c(c2)Oc2cc(O)cc4c2)c2ccc(O)c(c2)-c2c1cc(O)c(CN1CCN(Cc3ccc(-c4ccccc4)cc3)CC1)c2O (stereo not shown)
5.35

Moving on to the next compound: CCCCCCCCCC(=O)N1CCN(C(=O)C2NC(=O)C3NC(=O)C(NC(=O)C4NC(=O)C5NC(=O)C(Cc6ccc(c(Cl)c6)Oc6cc4cc(c6O)Oc4ccc(cc4Cl)C3O)NC(=O)C(N)c3ccc(O)c(c3)Oc3cc(O)cc5c3)c3ccc(O)c(c3)-c3c(O)cc(O)cc32)CC1 (stereo not shown)
5.82

Moving on to the next compound: CCCCCCCCCNCc1c(O)cc2c(c1O)-c1cc(ccc1O)C1NC(=O)C3NC(=O)C4NC(=O)C(Cc5ccc(c(Cl)c5)Oc5cc3cc(c5O)Oc3ccc(cc3Cl)C(O)C(NC1=O)C(=O)NC2C(=O)NCCCN(C)C)NC(=O)C(N)c1ccc(O)c(c1)Oc1cc(O)cc4c1 (stereo not shown)
5.66

Moving on to the next compound: CNC(CC(C)C)C(=O)NC1C(=O)NC(CC(N)=O)C(=O)NC2C(=O)NC3C(=O)NC(C(=O)NC(C(=O)NCc4ccc(F)cc4)c4cc(O)cc(O)c4-c4cc3ccc4O)C(O)c3ccc(cc3)Oc3cc2cc(c3O)Oc2ccc(cc2Cl)C1O (stereo not shown)
4.38

----------
System: HEL cells
Details: anti-VZV table
metric: MTC (HEL)

molecule	metric	result
CCCCc1ccc(CNC(=O)C2NC(=O)C3NC(=O)C(NC(=O)C4NC(=O)C(CC(N)=O)NC(=O)C(NC(=O)C(CC(C)C)NC)C(O)c5ccc(c(Cl)c5)Oc5cc4cc(c5OC4OC(CO)C(O)C(O)C4OC4CC(C)(N)C(O)C(C)O4)Oc4ccc(cc4)C3OC3CC(C)(N)C(O)C(C)O3)c3ccc(O)c(c3)-c3c(O)cc(O)cc32)cc1 (stereo not shown)	MTC (HEL)	≧5-20 μM
CCCCCCCCCCN1CCN(C(=O)C2NC(=O)C3NC(=O)C(NC(=O)C4NC(=O)C5NC(=O)C(Cc6ccc(c(Cl)c6)Oc6cc4cc(c6O)Oc4ccc(cc4Cl)C3O)NC(=O)C(N)c3ccc(O)c(c3)Oc3cc(O)cc5c3)c3ccc(O)c(c3)-c3c(O)cc(O)cc32)CC1 (stereo not shown)	MTC (HEL)	>5 to 50 µM
NC1C(=O)NC2Cc3ccc(c(Cl)c3)Oc3cc4cc(c3O)Oc3ccc(cc3Cl)C(O)C3NC(=O)C(NC(=O)C4NC(=O)C(NC2=O)c2cc(O)cc(c2)Oc2cc1ccc2O)c1ccc(O)c(c1)-c1c(O)cc(O)cc1C(C(=O)N1CCN(N=Cc2ccc(Cl)cc2)CC1)NC3=O (stereo not shown)	MTC (HEL)	≧5-20 μM

----------
System: HEL cells | Read-out: MTC (HEL)
metric: MTC (HEL)

compound	result
CC(C)CC(C(=O)NC1C(=O)NC(CC(N)=O)C(=O)NC2C(=O)NC3C(=O)NC(C(=O)NC(C(=O)O)c4cc(O)c(CN5CCN(Cc6ccc(-c7ccccc7)cc6)CC5)c(O)c4-c4cc3ccc4O)C(O)c3ccc(cc3)Oc3cc2cc(c3O)Oc2ccc(cc2Cl)C1O)N(C)C(=O)OC(C)(C)C (centres unmarked) [Compound 98]	≧20-200 μM
CN(Cc1ccc(Cl)cc1)Cc1c(O)cc2c(c1O)-c1cc(ccc1O)C1NC(=O)C3NC(=O)C4NC(=O)C(Cc5ccc(c(Cl)c5)Oc5cc3cc(c5O)Oc3ccc(cc3Cl)C(O)C(NC1=O)C(=O)NC2C(=O)O)NC(=O)C(N)c1ccc(O)c(c1)Oc1cc(O)cc4c1 (centres unmarked) [Compound 115]	≧20-200 μM
CCCCCCCCCC(=O)N1CCN(C(=O)C2NC(=O)C3NC(=O)C(NC(=O)C4NC(=O)C5NC(=O)C(Cc6ccc(c(Cl)c6)Oc6cc4cc(c6O)Oc4ccc(cc4Cl)C3O)NC(=O)C(N)c3ccc(O)c(c3)Oc3cc(O)cc5c3)c3ccc(O)c(c3)-c3c(O)cc(O)cc32)CC1 (centres unmarked) [Compound 40]	≧5-20 μM
CCCCOc1ccc(CNCCOc2c3cc4cc2Oc2ccc(cc2Cl)C(O)C2NC(=O)C(NC(=O)C4NC(=O)C4NC(=O)C(Cc5ccc(c(Cl)c5)O3)NC(=O)C(NCc3ccc(OCCCC)cc3)c3ccc(O)c(c3)Oc3cc(O)cc4c3)c3ccc(O)c(c3)-c3c(O)cc(O)cc3C(C(=O)O)NC2=O)cc1 (centres unmarked) [Compound 132]	≧5-20 μM

----------
System: HIV-1 (IIIB)
Test: Inhibition of HIV-1 (IIIB)-induced cytopathicity (giant cell formation) in CEM cells
Assay type: cell-based
Conditions: read-out: EC50 HIV-1 (concentration required to inhibit HIV-induced giant cell formation by 50%); HIV-1, CEM cell cultures
pEC50: −log10 of the molar value.
Would you please tag the item 1 when its pEC50 is 5 or above, and 0 when it is below?

Is reported pEC50 greater than or equal to 5 here: CCCCc1ccc(CNCC(=O)N2CCN(C(=O)C3NC(=O)C4NC(=O)C(NC(=O)C5NC(=O)C6NC(=O)C(Cc7ccc(c(Cl)c7)Oc7cc5cc(c7O)Oc5ccc(cc5Cl)C4O)NC(=O)C(N)c4ccc(O)c(c4)Oc4cc(O)cc6c4)c4ccc(O)c(c4)-c4c(O)cc(O)cc43)CC2)cc1 (stereo not shown)
1

Moving on to the next compound: CCCCc1ccc(CNC2C(Oc3c4cc5cc3Oc3ccc(cc3Cl)C(O)C3NC(=O)C(NC(=O)C5NC(=O)C5NC(=O)C(Cc6ccc(cc6)O4)NC(=O)C(NC)c4ccc(O)c(c4)Oc4cc(O)c(Cl)c5c4)c4ccc(O)c(c4)-c4c(cc(O)c(CN5CCN(Cc6ccc(-c7ccccc7)cc6)CC5)c4O)C(C(=O)O)NC3=O)OC(C(=O)O)C(O)C2O)cc1 (stereo not shown)
1

Moving on to the next compound: CCCCCCCCCC[N+](C)(C)CCCNC(=O)C1NC(=O)C2NC(=O)C(NC(=O)C3NC(=O)C(CC(N)=O)NC(=O)C(NC(=O)C(CC(C)C)NC)C(O)c4ccc(c(Cl)c4)Oc4cc3cc(c4OC3OC(CO)C(O)C(O)C3OC3CC(C)(N)C(O)C(C)O3)Oc3ccc(cc3Cl)C2O)c2ccc(O)c(c2)-c2c(O)cc(O)cc21 (stereo not shown)
1

Moving on to the next compound: CNC(CC(C)C)C(=O)NC1C(=O)NC(CC(N)=O)C(=O)NC2C(=O)NC3C(=O)NC(C(=O)NC(C(=O)O)c4cc(O)cc(O)c4-c4cc3ccc4O)C(O)c3ccc(cc3)Oc3cc2cc(c3O)Oc2ccc(cc2Cl)C1O (stereo not shown)
0

Moving on to the next compound: CCCCCCCCCC[N+](C)(C)CCCNCc1c(O)cc2c(c1O)-c1cc(ccc1O)C1NC(=O)C3NC(=O)C4NC(=O)C(Cc5ccc(c(Cl)c5)Oc5cc3cc(c5O)Oc3ccc(cc3Cl)C(O)C(NC1=O)C(=O)NC2C(=O)NCCO)NC(=O)C(N)c1ccc(O)c(c1)Oc1cc(O)cc4c1 (stereo not shown)
1

Moving on to the next compound: CCCCc1ccc(CNC2C(Oc3c4cc5cc3Oc3ccc(cc3Cl)C(O)C3NC(=O)C(NC(=O)C5NC(=O)C5NC(=O)C(Cc6ccc(cc6)O4)NC(=O)C(NC)c4ccc(O)c(c4)Oc4cc(O)c(Cl)c5c4)c4ccc(O)c(c4)-c4c(cc(O)c(CN5CCN(Cc6ccc(-c7ccccc7)cc6)CC5)c4O)C(C(=O)NCCCN(C)C)NC3=O)OC(C(=O)NCCCN(C)C)C(O)C2O)cc1 (stereo not shown)
1
